B1: library; a variant is named by its letters at N, in order (parent)
chain: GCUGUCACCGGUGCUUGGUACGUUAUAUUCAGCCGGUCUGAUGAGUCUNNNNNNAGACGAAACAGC

Variants of: B1
experiment: normalized RNA/DNA level with ligand (relative to sTRSVctl = 100) (log10 (% of sTRSVctl)); HEK293T overexpressing SLC46A1; ligand concentration (+) RNA-Seq: 6 mM; higher = less ribozyme self-cleavage, higher mRNA level
experimentalContext: with (6R,S)-folinic acid; ligand present: yes
I'd appreciate it if you could supply normalized RNA/DNA level with ligand (log10) values for the items below.

Task: Data request, read-out normalized RNA/DNA level with ligand (log10), for `AGGAGG`
Output: 2.05

Task: Report normalized RNA/DNA level with ligand (log10) for `CCUUAU` please.
Output: 2.05

Task: Param item = `UGGCCC` ; retrieve measured normalized RNA/DNA level with ligand (log10).
Output: 2.06

Task: Fill in the blank: the reported normalized RNA/DNA level with ligand (log10) of `GCCUUU` is ____.
Output: 2.05

Task: # normalized RNA/DNA level with ligand (log10) lookup, item `CUGUCG`
Output: 2.06

Task: normalized RNA/DNA level with ligand (log10) for `AUGAUG` ?
Output: 1.98

Task: Look at this variant and give its reported normalized RNA/DNA level with ligand (log10). `CGGUAG`
Output: 1.96

Task: So what's the measured normalized RNA/DNA level with ligand (log10) for this one? `GCUACA`
Output: 2.03

Task: Would you kindly share the measured normalized RNA/DNA level with ligand (log10) for `UGAUAC` ?
Output: 2

Task: Using the record for `UUUACG` , report its normalized RNA/DNA level with ligand (log10).
Output: 1.98

Task: Form field: reported normalized RNA/DNA level with ligand (log10) of `ACCUAG`
Output: 2.02

Task: # get_value(readout='normalized RNA/DNA level with ligand (log10)', item= `CUCUGA` )
Output: 2.05

Task: Name the recorded normalized RNA/DNA level with ligand (log10) for `CUACUU` .
Output: 2.02

Task: # get_value(readout='normalized RNA/DNA level with ligand (log10)', item= `UACAGG` )
Output: 1.96

Task: Please give the measured normalized RNA/DNA level with ligand (log10) for this variant: `GCUAUA`
Output: 2.02

Task: I'd like to know its normalized RNA/DNA level with ligand (log10). The variant in question is `CGAUUC`
Output: 2.08

Task: State the recorded normalized RNA/DNA level with ligand (log10) for this entry: `GUAACA`
Output: 1.98

Task: Quick one: normalized RNA/DNA level with ligand (log10) for `GUUGGG` ?
Output: 2.04

Task: Given the entry `AAAUUU` , report its measured normalized RNA/DNA level with ligand (log10).
Output: 2.05

Task: Form field: reported normalized RNA/DNA level with ligand (log10) of `CUAACC`
Output: 1.98

Task: What does the data say about its normalized RNA/DNA level with ligand (log10)? Entry: `AGGUUU`
Output: 2.03

Task: Value lookup for normalized RNA/DNA level with ligand (log10); key = `AGAUAU`
Output: 2.04

Task: For `AGGCCG` , what is its reported normalized RNA/DNA level with ligand (log10)?
Output: 2.02

Task: I'd like to know its normalized RNA/DNA level with ligand (log10). The variant in question is `CAGCAG`
Output: 2.03

Task: Name the reported normalized RNA/DNA level with ligand (log10) value associated with the variant `UUUGGG`
Output: 1.94

Task: normalized RNA/DNA level with ligand (log10) lookup needed for `GUAGCC` , thanks.
Output: 2.05

Task: Quick one: normalized RNA/DNA level with ligand (log10) for `ACUUAC` ?
Output: 2.02

Task: // returns reported normalized RNA/DNA level with ligand (log10) for input `CCACAC`
Output: 1.97

Task: I'd like to know its normalized RNA/DNA level with ligand (log10). The variant in question is `GUCUGA`
Output: 2.05

Task: Endpoint output: normalized RNA/DNA level with ligand (log10) of `UUAUUG` . Value?
Output: 1.97

Task: Quick one: normalized RNA/DNA level with ligand (log10) for `AGCCGG` ?
Output: 2.01

Task: Would you mind telling me what normalized RNA/DNA level with ligand (log10) value was observed for `UGUUCG` ?
Output: 1.96

Task: Quick check: normalized RNA/DNA level with ligand (log10) of `GAACAA` ?
Output: 2

Task: What normalized RNA/DNA level with ligand (log10) value was documented for this variant, `AGCUAA` ?
Output: 2

Task: GET /values?readout=normalized RNA/DNA level with ligand (log10)&item= `CAGGGA`
Output: 2

Task: // lookup normalized RNA/DNA level with ligand (log10) for `AGCGUC`
Output: 2.06

Task: What value of normalized RNA/DNA level with ligand (log10) has been recorded for this entry: `UAGUAU`
Output: 2.01

Task: Fill blank: measured normalized RNA/DNA level with ligand (log10) of the variant `UAUGAU` is ____.
Output: 1.97

Task: Tell me the measured normalized RNA/DNA level with ligand (log10) of `CCUCUA` , please.
Output: 2.03

Task: Which normalized RNA/DNA level with ligand (log10) is listed for `CCAGCC` ?
Output: 2.03

Task: So what does the record say about normalized RNA/DNA level with ligand (log10) for `ACGGUC` ?
Output: 2.06

Task: Entry `GAAUAC` : reported normalized RNA/DNA level with ligand (log10) = ?
Output: 2

Task: Query (variant): `CAUAGC` ; field requested: normalized RNA/DNA level with ligand (log10)
Output: 1.98

Task: Could you share which normalized RNA/DNA level with ligand (log10) value was measured for `AAACAU` ?
Output: 2.01

Task: Bench note: what normalized RNA/DNA level with ligand (log10) did `CCAAUA` show?
Output: 2

Task: Recorded normalized RNA/DNA level with ligand (log10) of `AUCCGC` , please.
Output: 2.03

Task: Look up normalized RNA/DNA level with ligand (log10): `AACUUA`
Output: 1.98

Task: Look up normalized RNA/DNA level with ligand (log10) for this variant: `GCAUGU`
Output: 2.02

Task: Request the reported normalized RNA/DNA level with ligand (log10) associated with `GUGCGG`
Output: 2.05

Task: Recorded normalized RNA/DNA level with ligand (log10) for `ACGCCG` , please?
Output: 2.03

Task: Which value of normalized RNA/DNA level with ligand (log10) has been reported for `CUUGCG` in the records?
Output: 2.01

Task: Quick check: normalized RNA/DNA level with ligand (log10) of `AGUAGA` ?
Output: 2.02

Task: // normalized RNA/DNA level with ligand (log10) lookup, key: `AUUGUA`
Output: 2

Task: Would you kindly share the measured normalized RNA/DNA level with ligand (log10) for `ACACUU` ?
Output: 2.03

Task: What measured normalized RNA/DNA level with ligand (log10) goes with `GAUUAG` ?
Output: 2

Task: What value of normalized RNA/DNA level with ligand (log10) has been recorded for this entry: `AGGCCC`
Output: 2.03

Task: Name the recorded normalized RNA/DNA level with ligand (log10) for `GUGCCA` .
Output: 2.01

Task: Item under review: `AUGAGC` . Reported normalized RNA/DNA level with ligand (log10)?
Output: 2.03

Task: Entry `UCGCCA` has what normalized RNA/DNA level with ligand (log10)?
Output: 2.03

Task: Look up normalized RNA/DNA level with ligand (log10) for this variant: `UUGCGC`
Output: 2.08

Task: Sample `UAUGUU` — what was its normalized RNA/DNA level with ligand (log10)?
Output: 2

Task: # get_value(readout='normalized RNA/DNA level with ligand (log10)', item= `GCUAUC` )
Output: 2.01

Task: Entry under review: `ACCGCA` . Reported normalized RNA/DNA level with ligand (log10)?
Output: 2.01

Task: Returns the measured normalized RNA/DNA level with ligand (log10) for the input variant. Input: `CAUGAU`
Output: 2

Task: # lookup: normalized RNA/DNA level with ligand (log10) of `GUUACU`
Output: 2.03

Task: Return reported normalized RNA/DNA level with ligand (log10); argument: `GAGAGG`
Output: 2.03

Task: # lookup: normalized RNA/DNA level with ligand (log10) of `GCUCUA`
Output: 2.03

Task: // normalized RNA/DNA level with ligand (log10) lookup, key: `UUUGCC`
Output: 2.04

Task: May I ask what normalized RNA/DNA level with ligand (log10) has been recorded for `AACUCC` ?
Output: 2.01

Task: // normalized RNA/DNA level with ligand (log10) lookup, key: `GCGUUG`
Output: 2.05

Task: # query: normalized RNA/DNA level with ligand (log10) of entry `GUAUGC`
Output: 2

Task: So what does the record say about normalized RNA/DNA level with ligand (log10) for `GGUAGU` ?
Output: 2.01

Task: # lookup: normalized RNA/DNA level with ligand (log10) of `UCGGUU`
Output: 2.06

Task: So what does the record say about normalized RNA/DNA level with ligand (log10) for `AACUUG` ?
Output: 2

Task: Need normalized RNA/DNA level with ligand (log10), item `GAGAGA`
Output: 2.01

Task: Field request: normalized RNA/DNA level with ligand (log10) | item: `ACAAGU`
Output: 2.02

Task: Can you share its normalized RNA/DNA level with ligand (log10)? I mean this variant: `GCAUAA`
Output: 2

Task: // query normalized RNA/DNA level with ligand (log10) value for entry `AGAGAU`
Output: 1.99

Task: Data request, read-out normalized RNA/DNA level with ligand (log10), for `AGGGGC`
Output: 2.04

Task: Requested read-out: normalized RNA/DNA level with ligand (log10). Entry: `CUGCUC`
Output: 2.02

Task: # query: normalized RNA/DNA level with ligand (log10) of entry `UCGAGG`
Output: 2

Task: Entry `GCCAGU` : reported normalized RNA/DNA level with ligand (log10) = ?
Output: 2.05

Task: So what does the record say about normalized RNA/DNA level with ligand (log10) for `UGUUUU` ?
Output: 2.03

Task: Fill in: normalized RNA/DNA level with ligand (log10) of `UCGACU` is ___
Output: 2.01

Task: Give its normalized RNA/DNA level with ligand (log10) value. Item: `UUUAGG`
Output: 2

Task: Returns the measured normalized RNA/DNA level with ligand (log10) for the input variant. Input: `CAUUUG`
Output: 2.06

Task: May I ask what normalized RNA/DNA level with ligand (log10) has been recorded for `UGAUGC` ?
Output: 2

Task: For the variant `CAAACA` , what normalized RNA/DNA level with ligand (log10) is on record?
Output: 2

Task: Give its normalized RNA/DNA level with ligand (log10) value. Item: `UACUGC`
Output: 2.02

Task: Entry `GACAAC` : reported normalized RNA/DNA level with ligand (log10) = ?
Output: 2

Task: Item `CAGAAU` has what recorded normalized RNA/DNA level with ligand (log10)?
Output: 1.95

Attribution: the supplement of paper PMC6757056
